system: 556581-035-R-J1-PDC spheroids with HUVEC/MSC, viability; assay: Anticancer human tumor 556581-035-R-J1-PDC patient-derived ovarian carcinoma cell line growth inhibition [IpAb]; conditions: second compound 0.316 µM; first compound 0.01 µM; active compounds read low;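 also: spheroids exposed to compounds for 7 days before readout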
Let's look at some compounds and their measured viability, T/C.

{"columns": ["COMPOUND", "UNIT_NAME", "viability, T/C"],
 "data": [
  ["Cn1ncnc1[C@H]1c2n[nH]c(=O)c3cc(F)cc(c23)N[C@@H]1c1ccc(F)cc1 + CCN1CCN(Cc2ccc(Nc3ncc(F)c(-c4cc(F)c5nc(C)n(C(C)C)c5c4)n3)nc2)CC1", "%", 79.1],
  ["COc1c(OCCCN2CCOCC2)ccc2c3n(c(=NC(=O)c4cnc(N)nc4)nc12)CCN3 + CCN1CCN(Cc2ccc(Nc3ncc(F)c(-c4cc(F)c5nc(C)n(C(C)C)c5c4)n3)nc2)CC1", "%", 63.2],
  ["CC(C)n1nc(-c2ccc3oc(N)nc3c2)c2c(N)ncnc21 + CCN1CCN(Cc2ccc(Nc3ncc(F)c(-c4cc(F)c5nc(C)n(C(C)C)c5c4)n3)nc2)CC1", "%", 44.2],
  ["Cn1ncnc1[C@H]1c2n[nH]c(=O)c3cc(F)cc(c23)N[C@@H]1c1ccc(F)cc1 + CC(C)NCC(C(=O)N1CCN(c2ncnc3c2C(C)CC3O)CC1)c1ccc(Cl)cc1", "%", 59.7],
  ["CC(C)n1nc(-c2ccc3oc(N)nc3c2)c2c(N)ncnc21 + CC(C)NCC(C(=O)N1CCN(c2ncnc3c2C(C)CC3O)CC1)c1ccc(Cl)cc1", "%", 40.9],
  ["COc1c(OCCCN2CCOCC2)ccc2c3n(c(=NC(=O)c4cnc(N)nc4)nc12)CCN3 + CC(C)NCC(C(=O)N1CCN(c2ncnc3c2C(C)CC3O)CC1)c1ccc(Cl)cc1", "%", 62.8]
]}
